// Weed suppression rate (%) Echinochloa crus-galli lookup, one value per entry
# System: Echinochloa crus-galli
# assay.explanation: Test Example 12: herbicidal effect test by treatment during growing period in paddy field
# Format: in vivo
# assay.setup: 120 g/10a; treatment seven days after sowing in flooded paddy pot; assessed 14 days after treatment
Write it as a number; the unit % goes unstated.

Example results:
{"compound": "CC(C)N(C(=O)n1cnn(S(=O)(=O)C2CC2)c1=O)c1ccccc1 [Compound 11-159]", "tested.on": "Echinochloa crus-galli", "quantitative.result": 90}
{"compound": "CC(C)N(C(=O)n1cnn(S(=O)(=O)c2ccccc2)c1=O)c1ccc(F)cc1F [Compound 11-367]", "tested.on": "Echinochloa crus-galli", "quantitative.result": 100}

# input for lookup
input: Tell me its Weed suppression rate (%) Echinochloa crus-galli on Echinochloa crus-galli: CC(C)N(C(=O)n1cnn(S(=O)(=O)c2cccc(F)c2)c1=O)c1ccccc1F [Compound 11-428]
output: 90
